Listed here: items and their measured GI50.
Assay: Growth inhibition of human HOP92 cells after 48 hrs by SRB assay
Type: functional
Settings: HOP-92, 48 h

{"substance.smiles": "COc1ccc2cc(C(=O)Nc3ccc(O)cc3)sc(=O)c2c1OC", "GI50, µM": 17.8}
{"substance.smiles": "COc1ccc2cc(C(=O)Nc3cccc(C(F)(F)F)c3)sc(=O)c2c1OC", "GI50, µM": 3.02}
{"substance.smiles": "COc1ccc2cc(C(=O)N3CCCCCC3)sc(=O)c2c1OC", "GI50, µM": 2.75}
{"substance.smiles": "COc1ccc2cc(C(=O)Nc3nc(-c4ccccc4)cs3)sc(=O)c2c1OC", "GI50, µM": 1.29}
{"substance.smiles": "COc1ccc2cc(C(=O)OC(C)C)sc(=O)c2c1OC", "GI50, µM": 28.8}
{"substance.smiles": "COc1ccc2cc(C(=O)Nc3cccc4ccccc34)sc(=O)c2c1OC", "GI50, µM": 20.4}

----------
Test: Acute toxicity in ip dosed white mouse
Type: organism-based
Details: in vivo
Listed here: items and their measured LD50.

{"substance.smiles": "COc1ccc2cc(C(=O)Nc3nc(-c4ccccc4)cs3)sc(=O)c2c1OC", "LD50, mg/kg": 515}
{"substance.smiles": "O=C(Nc1cccc2ccccc12)c1cc2ccccc2c(=O)s1", "LD50, mg/kg": 410}
{"substance.smiles": "COc1ccc2cc(C(=O)Nc3cccc(C(F)(F)F)c3)sc(=O)c2c1OC", "LD50, mg/kg": 750}
{"substance.smiles": "COc1ccc2cc(C(=O)Nc3ccc(S(N)(=O)=O)cc3)sc(=O)c2c1OC", "LD50, mg/kg": 870}

All values here come from ChEMBL document CHEMBL3124905.
